- System: KM-20L2
- assay.method.text: NCI tumour cell line growth inhibition, 48 h
The source made the active and inactive calls. Rule as the data show it: active = GI50 up to about 1.1 µM and inactive = higher.
Possible outcomes: class 1 (active), class 0 (inactive)

* c1ccc(C2=NN3CN(N2)c2ccccc2OCCCOc2ccccc23)cc1 | class 0
* Cc1nc(Nc2ccc(Cl)cc2)sc1C(=O)NNC(=O)C(=O)NN | class 0
* COc1ccc(Oc2ccccc2N)cc1 | class 0
* COC1C(OC(=S)Nc2ccccc2)c2ccccc2N1C(C)=O (configuration not stated) | class 0
* O=C1c2ccccc2N2OC3C4CCC(C4)C3C12c1ccccc1 (configuration not stated) | class 0
* O=[N+]([O-])c1ccc(-n2nnc(C3=NCCN3)c2-c2ccc(Cl)cc2)cc1 | class 0
* Nc1ncnc2c(C3OC(CO)C(O)C3O)scc12 (configuration not stated) | class 1
* CCc1ccccc1NC(=O)C1=C(C)NC(C)=C(C(=O)Nc2ccccc2CC)C1c1ccc(NC(C)=O)cc1 | class 0
* Cc1ccc(-c2cc(=S)n(-c3ccccc3)c3[nH]c(=S)n(-c4ccccc4)c(=N)c23)cc1 | class 0
* CNC(=O)CN1CC(=O)N(C)C(=O)C1 | class 0
* COc1ccc(OC(C)C(=O)O)c2c1CCCC2=O (configuration not stated) | class 1
* COc1ccc2c(c1)[n+]([O-])c(-c1ccccc1Cl)c(N)[n+]2[O-] | class 0
* Cc1c(C2Cc3ccccc3N2C(=O)/C=C\C(=O)O)c2ccccc2n1C (configuration not stated) | class 0
* NC1=C(NC(=O)Cc2ccc(F)cc2)C(=O)c2ccccc2C1=O | class 0
* COc1ccc2c(c1)[n+]([O-])c(-c1ccc(C)cc1)c(N)[n+]2[O-] | class 0
* O=C(OCC1CO1)c1cccs1 (configuration not stated) | class 0
* NNC(=O)/C(NC(=O)c1ccccc1)=C(\N)c1ccc(Cl)cc1 | class 0
* C=CC1(C)CC(=O)C2(O)C(C)(O1)C(OC(C)=O)C(O)C1C(C)(C)CCC(O)C12C (configuration not stated) | class 0
* CC1=C2[C@H](c3ccccc3)C3C=CC2(c2ccccc23)N(C(=O)C(c2ccccc2)c2ccccc2)C1=O (some centres not stated) | class 0
* O=C(c1ccccc1)c1nnn(Cc2ccccc2Cn2nnc(C(=O)c3ccccc3)c2C(=O)c2ccccc2)c1C(=O)c1ccccc1 | class 0
* Nc1c(-c2ccc(Br)cc2)[n+]([O-])c2ccccc2[n+]1[O-] | class 0
* OCC1C(/C=C/c2ccoc2)ON2CCCC12 (configuration not stated) | class 0

----------
Test system HCT-15, GI50 listed for each of the molecules.
readout.name: GI50

* NCCCc1nonc1C(=O)O | > 100 µM
* CCOP(=O)(OCC)C(Nc1cccc(F)c1)c1ccc(N(C)C)cc1 (stereo not given) | 78.2 µM
* COC(C(=O)NCCCCNC(=O)C(OC)c1ccccc1)c1ccccc1 (stereo not given) | > 100 µM
* COc1ccc([C@@]23Oc4cc(OC)cc(OC)c4[C@]2(O)[C@H](O)[C@H](C(N)=O)[C@H]3c2ccccc2)cc1 [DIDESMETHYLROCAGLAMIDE] | < 0.0142 µM
* NCCNCCNc1ccc(NCCNCCN)c2c1C(=O)c1c(O)ccc(O)c1C2=O | > 100 µM
* CC(=O)NC1C(OCc2ccccc2)OC(COC(=O)CCCCCNc2ccc([N+](=O)[O-])c3[nH]c4ccc(O)cc4c(=O)c23)C(O)C1OC(C)C(=O)N[C@@H](C)C(=O)N[C@H](CCC(=O)OCc1ccccc1)C(N)=O (stereo not given in full) | 0.745 µM
* COc1ccc(-c2nc(N)n(C)c2SSc2c(-c3ccc(OC)cc3)nc(N)n2C)cc1 | 3.04 µM
* Cc1ccc2c(c1)CC1(Cc3cccc(C)c3C1=O)C2=O (stereo not given) | > 100 µM
* CCOC(=O)NC(Nc1ccc(OC(F)(F)F)cc1)(C(F)(F)F)C(F)(F)F | > 100 µM
* CN(C)c1nc2oc(-c3ccccc3)c(-c3ccccc3)c2c2nncn12 | > 100 µM
* COC1(OC)C2(Cl)C3=CCCC=C3C1(Cl)C(Cl)=C2Cl | 27.5 µM
* CCC(=O)C(C(C)/C=C/CCSc1ccccc1)C(O)CCCCCC(=O)OC (stereo not given) | 88.7 µM
* O=C1OC(c2ccccc2)=N/C1=C\c1c(O)cc(O)cc1O | 38 µM
* C=C1C(=O)O[C@@H]2[C@@H]3O[C@@H](C[C@@H]13)[C@](C)(O)CC/C=C(\C)CCC[C@@H]2C | 11.6 µM
* Cc1c2c(n(CC(c3ccccc3)c3ccccc3)c1C)NN=C(C#N)S2(=O)=O | > 100 µM
* CNC(=S)NNC(=O)c1c(C)nc2sccn12 | > 100 µM
* CC(=O)Oc1ccc(/C=C/C(=O)NCCOC(=O)/C=C/c2ccc(OC(C)=O)c(OC(C)=O)c2)cc1OC(C)=O | 34.8 µM
* COc1ccc(-c2c(C3=NCCN3)nnn2-c2ccccc2)cc1 | > 100 µM
* c1ccc2c(c1)ncn2C1CCCCO1 (stereo not given) | > 100 µM
* O=C(O)c1ccc(NC(NC(=O)C(C(F)(F)F)C(F)(F)F)(C(F)(F)F)C(F)(F)F)cc1 | > 100 µM

Just for reference, ChEMBL document CHEMBL1201862 is where these values come from.
